system: K4 kissing-loop RNA reporter; test: apparent KD of K4 kissing-loop reporter; higher = weaker reporter binding; details: Eterna round: R107; input ligand: tryptophan 2.4 mM;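 further: bound reporter read as fluorescence of individual clusters on recovered sequencing chips by microscopy, with normalized cluster intensities fitted with a binding model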
Provide the recorded apparent KD of K4 kissing-loop reporter for the entries that follow.
Field format: number, assumed nM, no unit text.

So what apparent KD of K4 kissing-loop reporter did ACGUAGUUCUAGGAUACCAGCCAAGGCCCAGGACAAAAGUCCUGGGUCGCCAGUGAUGUUGGCCCUUGGCAGCCUAGAACUACGA [Omei KL Theo B Exc B v11] get with K4 kissing-loop RNA reporter? 444

So what apparent KD of K4 kissing-loop reporter did ACCCGGGCCCGAAAGGGCCCGGGAAGAGAUACCAGCAGCGAAAGCUGCCCUUGGCAGCUCACUUAGUGAUGUUGAGAAUAGGGCG [#21 K4 Theophylline A Same State] get with K4 kissing-loop RNA reporter? 225

So what apparent KD of K4 kissing-loop reporter did GCGGGCCCUGGAGGAUAUGAGUCGAGUGAUGUUCGGCGGUCCAUGCCGAUGCGGCGUUAUGCCCUUUUAGAAGGCCAGGGCCCGC [#2 Exclusion - FMN B Attempt #7 (HarryS)] get with K4 kissing-loop RNA reporter? 277

So what apparent KD of K4 kissing-loop reporter did UGUACCGAUUCAGGAUAUGUCGUCGAAAGACGAAAUGGAGUGAUGUUCCUUAAACUGCGAAAGCAGACAGAAGGGAAUUGGUACU [FmnBS 29 U9+A77] get with K4 kissing-loop RNA reporter? 284

So what apparent KD of K4 kissing-loop reporter did ACACUUUACGUAGGAUAUGCGACGAGUGAUGUUCGUCAGGCGGCUCUAGAUUAAACAAGCCGCCUAGCAGAAGGACGGGCAGUGU [Teaanso] get with K4 kissing-loop RNA reporter? 163

So what apparent KD of K4 kissing-loop reporter did GCCGUACGCAUGGAUACCAGAGAUGUUAGUCUCGAUGCCAGUGAUGUUGGCUAUAGCAUACUCCCUUGGCAGCCAUGCGUACGGC get with K4 kissing-loop RNA reporter? 107

So what apparent KD of K4 kissing-loop reporter did UUUGAAAUGACUGAUACCAGUGAAAAUAUAUGUAGUGAUGUUAUAUACUAAUUUAAUAAGCGCCCUUGGCAGCAGUAUGAAUUAU [AstrosExc-theB#16] get with K4 kissing-loop RNA reporter? 560

So what apparent KD of K4 kissing-loop reporter did UAUUGUACAGGGAAAUUGAUAAUAGACUUACGAGGACCGGUACGGCCGCCACUCGAUAGUCGAGUGAUGUUCGAAUGCUAUUGAU [Attempt 1] get with K4 kissing-loop RNA reporter? 132

So what apparent KD of K4 kissing-loop reporter did UAAUAUAAUCUGUCGUUUACAAUAUUUAGUCAGGAUAUCGUAUAUUCGAGAAGGGACACUAUCUAGUGAUGUUAGAUAUUUCGUU [JR_ExcFMNA_Sub015] get with K4 kissing-loop RNA reporter? 54.6

So what apparent KD of K4 kissing-loop reporter did AGCUCAGAGUGACUCGAUAAGAGUCACAAACGAGGACCGGUACGGCCGCCACUCGAAAUAACGAGAGUGAUGUUCUCACUGAGCA [FiskerMod 11 - Jieux - Same State Tryptophan A] get with K4 kissing-loop RNA reporter? 378

So what apparent KD of K4 kissing-loop reporter did CCAGGACGAUGAGGAGGAUGAAUUACUGAAGGAGCGCAUAUGGUUGCAGGUAGGUCGCGGUGAACAAGUAUAGUGAUGUUAUACC [SSArgA.T] get with K4 kissing-loop RNA reporter? 445

So what apparent KD of K4 kissing-loop reporter did AGUAAUGAGUGAUGUUCAAAUAGUAAGGAUACCAGUAAUUCAAAAUGCCCUUGGCAGCUUAACGCUACCAAUAGAUAAAUAAUGG [Theophilline A V2 (+2A)] get with K4 kissing-loop RNA reporter? 96.8

So what apparent KD of K4 kissing-loop reporter did GCCAGGCAUCUGCAGAGUGAUGUUCAAAAGCGAGGACCGGUACGGCCGCCACUCGAAAGCAGAUGCCUGGGCGUACAAAGUACGC [idea] get with K4 kissing-loop RNA reporter? 899

So what apparent KD of K4 kissing-loop reporter did GCGAGUUUGCAAGGAUAUCGACCGUCGUACGACCAGUGAUGUUGGGAGUACUUUCAAAAUCGAUUUCGAGAAGGUGCUGGCAUCA [theeternabot_sameState_KL_FMN_B_12] get with K4 kissing-loop RNA reporter? 234

So what apparent KD of K4 kissing-loop reporter did AUUUUUUUAUCAGGAUAUUAGUGAUGGUUUGUUUUGUUAGUGAUGUUGAUAUUUGUUUUAUGUAUUUAAGAAGGGAUUGAGAUGU [seesullin] get with K4 kissing-loop RNA reporter? 48.9

So what apparent KD of K4 kissing-loop reporter did CUCGAGUGAUGUUCGAUUAUUUAUACAGAUACCAGUGAAUUUUAACACCCUUGGCAGCUGGUUGUAUCUUUGUAAUUUACACAAG [JR_ExcTheophyA_Sub005] get with K4 kissing-loop RNA reporter? 93.6

So what apparent KD of K4 kissing-loop reporter did AUUUAGACGAGUGAUGUUCGUGUUAUUACAGAGGAUAUGCGUAAUUGCAGAAGGCUGUAUUUAUAUAUGUUAUGUGGUUUUAAAA [whbob_Ex_FMNA__2th185] get with K4 kissing-loop RNA reporter? 63

So what apparent KD of K4 kissing-loop reporter did ACGACGCAUAGUGAUACCAGCUAUAUAUGAGUGAUGUUCUACCUAAAAUGGUAAUAAUUUAGCCCUUGGCAGCACUAUGCGUCAG [KL-SSTheoB4] get with K4 kissing-loop RNA reporter? 262

So what apparent KD of K4 kissing-loop reporter did CAACCCUGCUUUUUCGAGUUUUAGGGAUGACGAGGACCGGUACGGCCGCCACUCGACUACACUGUUCAGUGAUGUUGAACGGCGG [Teveza] get with K4 kissing-loop RNA reporter? 267

So what apparent KD of K4 kissing-loop reporter did AAUAUAUAGUGAAGGAGCGCGAUAAGCAGUGAUGUUGCUUUGUUAUGAUUGUCUAUUUUUACGCAGGUAGGUCGCACUAUAUAUA [JR_ExcArginiB_Sub020] get with K4 kissing-loop RNA reporter? 122

Where these numbers come from: the supplement of paper PMC9170038
